Assay text: AUC (0 to infinity) in rat at 10 mg/kg, po
Format: ADME, organism-based
Design: time infinity, dose 10 mg/kg, route oral
Cond: plasma
Measured parameter: AUC(0-inf) (µM·h)

1) COc1ccc2c(c1)[C@@H]1C[C@]1(C(=O)N1[C@@H]3CC[C@H]1CN(C)C3)Cn1c-2c(C2CCCCC2)c2ccc(C(=O)NS(=O)(=O)N(C)C)cc21: 39.3

====

Measured pEC50 values are reported for all entries that follow.
Measurement target: Nuclear receptor subfamily 1 group I member 2 (Homo sapiens, UniProt O75469)
Sequence (O75469 whole entry): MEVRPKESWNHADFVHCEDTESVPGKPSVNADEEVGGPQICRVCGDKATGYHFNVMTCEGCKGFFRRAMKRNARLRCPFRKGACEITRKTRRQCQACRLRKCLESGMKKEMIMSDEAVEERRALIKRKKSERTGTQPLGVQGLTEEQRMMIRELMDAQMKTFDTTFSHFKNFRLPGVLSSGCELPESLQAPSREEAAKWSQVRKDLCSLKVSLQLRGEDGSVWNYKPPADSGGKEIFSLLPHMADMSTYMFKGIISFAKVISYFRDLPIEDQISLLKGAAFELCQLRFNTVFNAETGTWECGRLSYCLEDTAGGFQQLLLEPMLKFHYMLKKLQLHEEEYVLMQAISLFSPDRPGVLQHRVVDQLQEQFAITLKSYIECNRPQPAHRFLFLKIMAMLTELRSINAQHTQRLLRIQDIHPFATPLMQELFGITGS
Assay text: Transactivation of human PXR expressed in human HepG2 cells by luciferase reporter gene assay
pEC50: −log10 of the molar value.
Measured parameter: pEC50

1. COc1ccc2c(c1)C1CC1(C(=O)N1CC3CCC(C1)O3)Cn1c-2c(C2CCCCC2)c2ccc(C(=O)NS(=O)(=O)N(C)C)cc21 (racemic): 6.22
2. COc1ccc2c(c1)C1CC1(C(=O)N1C[C@@H](C)N(C(C)=O)[C@@H](C)C1)Cn1c-2c(C2CCCCC2)c2ccc(C(=O)NS(=O)(=O)N(C)C)cc21 (mixture of isomers): < 4.30
3. COc1ccc2c(c1)C1CC1(C(=O)N1C[C@@H](C)N[C@@H](C)C1)Cn1c-2c(C2CCCCC2)c2ccc(C(=O)NS(=O)(=O)N(C)C)cc21 (mixture of isomers): < 4.30
4. COc1ccc2c(c1)C1CC1(C(=O)N1CC(O)(c3ccc(F)cc3)C1)Cn1c-2c(C2CCCCC2)c2ccc(C(=O)NS(=O)(=O)N(C)C)cc21 (racemic): < 4.30
5. COc1ccc2c(c1)C1CC1(C(=O)N1CC(O)C1)Cn1c-2c(C2CCCCC2)c2ccc(C(=O)NS(=O)(=O)N(C)C)cc21 (racemic): < 4.30
6. CCN1CC2CCC(C1)N2C(=O)C12CC1c1cc(OC)ccc1-c1c(C3CCCCC3)c3ccc(C(=O)NS(=O)(=O)N(C)C)cc3n1C2 (racemic): < 4.30
7. COc1ccc2c(c1)C1CC1(C(=O)N1CC(C)(O)C1)Cn1c-2c(C2CCCCC2)c2ccc(C(=O)NS(=O)(=O)N(C)C)cc21 (racemic): < 4.30
8. COc1ccc2c(c1)C1CC1(C(=O)N1C3CC1CN(Cc1ccccc1)C3)Cn1c-2c(C2CCCCC2)c2ccc(C(=O)NS(=O)(=O)N(C)C)cc21 (racemic): 5.70
9. COc1ccc2c(c1)C1CC1(C(=O)N1CC(O)(C(F)(F)F)C1)Cn1c-2c(C2CCCCC2)c2ccc(C(=O)NS(=O)(=O)N(C)C)cc21 (racemic): < 5.52
10. COc1ccc2c(c1)[C@@H]1C[C@]1(C(=O)N1C3CC1CN(C)C3)Cn1c-2c(C2CCCCC2)c2ccc(C(=O)NS(=O)(=O)N(C)C)cc21: < 4.30
11. COc1ccc2c(c1)C1CC1(C(=O)N1CC3CCC(C1)N3C)Cn1c-2c(C2CCCCC2)c2ccc(C(=O)NS(=O)(=O)N(C)C)cc21 (racemic): 5.52
12. CCN1CC2CC(C1)N2C(=O)[C@]12C[C@H]1c1cc(OC)ccc1-c1c(C3CCCCC3)c3ccc(C(=O)NS(=O)(=O)N(C)C)cc3n1C2: < 4.30
13. COc1ccc2c(c1)C1CC1(C(=O)N1C3CC1CN(C)C3)Cn1c-2c(C2CCCCC2)c2ccc(C(=O)NS(=O)(=O)N(C)C)cc21 (racemic): < 4.30
14. COc1ccc2c(c1)C1CC1(C(=O)N1CCN(C(=O)N(C)C)CC1)Cn1c-2c(C2CCCCC2)c2ccc(C(=O)NS(=O)(=O)N(C)C)cc21 (racemic): < 4.30
15. COc1ccc2c(c1)C1CC1(C(=O)N1C3CNCC1C3)Cn1c-2c(C2CCCCC2)c2ccc(C(=O)NS(=O)(=O)N(C)C)cc21 (racemic): < 4.30
16. COc1ccc2c(c1)C1CC1(C(=O)N1CC(O)(c3ccccc3)C1)Cn1c-2c(C2CCCCC2)c2ccc(C(=O)NS(=O)(=O)N(C)C)cc21 (racemic): < 4.30
17. COc1ccc2c(c1)C1CC1(C(=O)N1C[C@@H](C)N(C)[C@@H](C)C1)Cn1c-2c(C2CCCCC2)c2ccc(C(=O)NS(=O)(=O)N(C)C)cc21 (mixture of isomers): < 4.30
18. COc1ccc2c(c1)C1CC1(C(=O)N1CC(O)(C3CC3)C1)Cn1c-2c(C2CCCCC2)c2ccc(C(=O)NS(=O)(=O)N(C)C)cc21 (racemic): < 4.30
19. COc1ccc2c(c1)C1CC1(C(=O)N1CCN(C(C)=O)CC1)Cn1c-2c(C2CCCCC2)c2ccc(C(=O)NS(=O)(=O)N(C)C)cc21 (racemic): < 4.30
20. COc1ccc2c(c1)C1CC1(C(=O)N1C3CCC1CNC3)Cn1c-2c(C2CCCCC2)c2ccc(C(=O)NS(=O)(=O)N(C)C)cc21 (racemic): 5.05
21. COC[C@H]1CN(C(=O)[C@]23C[C@H]2c2cc(OC)ccc2-c2c(C4CCCCC4)c4ccc(C(=O)NS(=O)(=O)N(C)C)cc4n2C3)CCO1: < 4.30
22. COc1ccc2c(c1)C1CC1(C(=O)N1CC3CCC(C1)N3)Cn1c-2c(C2CCCCC2)c2ccc(C(=O)NS(=O)(=O)N(C)C)cc21 (racemic): < 4.30
23. COc1ccc2c(c1)C1CC1(C(=O)N1CC(O)(C(C)C)C1)Cn1c-2c(C2CCCCC2)c2ccc(C(=O)NS(=O)(=O)N(C)C)cc21 (racemic): < 4.30

====

Assay text: Tmax in rat at 10 mg/kg, po
Assay type: ADME, organism-based
Parameters: dose 10 mg/kg, route oral
Cond: in vivo
Measured parameter: Tmax (h)

1. COc1ccc2c(c1)[C@@H]1C[C@]1(C(=O)N1[C@@H]3CC[C@H]1CN(C)C3)Cn1c-2c(C2CCCCC2)c2ccc(C(=O)NS(=O)(=O)N(C)C)cc21 [BECLABUVIR]: 5.3

====

Assay text: Drug uptake in rat liver at 5 mg/kg, iv after 6 hrs
Format: ADME, organism-based
Design: dose 5 mg/kg, route intravenous
Cond: read-out: Drug uptake
Measured parameter: concentration at 6 h (µM)

1) COc1ccc2c(c1)[C@@H]1C[C@]1(C(=O)N1C3CC1CN(C)C3)Cn1c-2c(C2CCCCC2)c2ccc(C(=O)NS(=O)(=O)N(C)C)cc21: 17.5

====

Assay text: Cmax in rat at 5 mg/kg, iv
Type: ADME, organism-based
Set-up: dose 5 mg/kg, route intravenous
Cond: in vivo
Measured parameter: Cmax (µM)

1) COc1ccc2c(c1)[C@@H]1C[C@]1(C(=O)N1[C@@H]3CC[C@H]1CN(C)C3)Cn1c-2c(C2CCCCC2)c2ccc(C(=O)NS(=O)(=O)N(C)C)cc21 [BECLABUVIR]: 12.1

====

Measured clearance values are reported for all entries that follow.
Assay text: Plasma clearance in rat at 5 mg/kg, iv
Assay type: ADME, organism-based
Design: dose 5 mg/kg, route intravenous
Measured parameter: clearance (mL/min/kg)

1) COc1ccc2c(c1)C1CC1(C(=O)N1C[C@@H](C)N(C(C)=O)[C@@H](C)C1)Cn1c-2c(C2CCCCC2)c2ccc(C(=O)NS(=O)(=O)N(C)C)cc21 (mixture of isomers): 37
2) COc1ccc2c(c1)C1CC1(C(=O)N1CC(O)C1)Cn1c-2c(C2CCCCC2)c2ccc(C(=O)NS(=O)(=O)N(C)C)cc21 (racemic): 96
3) COc1ccc2c(c1)C1CC1(C(=O)N1CC(C)(O)C1)Cn1c-2c(C2CCCCC2)c2ccc(C(=O)NS(=O)(=O)N(C)C)cc21 (racemic): 14
4) COc1ccc2c(c1)C1CC1(C(=O)N1C[C@@H](C)N(C)[C@@H](C)C1)Cn1c-2c(C2CCCCC2)c2ccc(C(=O)NS(=O)(=O)N(C)C)cc21 (mixture of isomers): 29

====

Measured Stability values are reported for all entries that follow.
Tested on: Liver microsome
Cond: human, microsomes
Measured parameter: Stability (%)

1) COc1ccc2c(c1)C1CC1(C(=O)N1CC(O)(C(C)C)C1)Cn1c-2c(C2CCCCC2)c2ccc(C(=O)NS(=O)(=O)N(C)C)cc21 (racemic): 72
2) COc1ccc2c(c1)[C@@H]1C[C@]1(C(=O)N1[C@@H]3CC[C@H]1CN(C)C3)Cn1c-2c(C2CCCCC2)c2ccc(C(=O)NS(=O)(=O)N(C)C)cc21: 90
3) COc1ccc2c(c1)C1CC1(C(=O)N1C3CNCC1C3)Cn1c-2c(C2CCCCC2)c2ccc(C(=O)NS(=O)(=O)N(C)C)cc21 (racemic): 97
4) COc1ccc2c(c1)C1CC1(C(=O)N1CC(O)C1)Cn1c-2c(C2CCCCC2)c2ccc(C(=O)NS(=O)(=O)N(C)C)cc21 (racemic): 95
5) COc1ccc2c(c1)C1CC1(C(=O)N1CC3CCC(C1)N3)Cn1c-2c(C2CCCCC2)c2ccc(C(=O)NS(=O)(=O)N(C)C)cc21 (racemic): 100
6) COc1ccc2c(c1)C1CC1(C(=O)N1CC(O)(c3ccccc3)C1)Cn1c-2c(C2CCCCC2)c2ccc(C(=O)NS(=O)(=O)N(C)C)cc21 (racemic): 72
